test: Biodistribution in tumor of BALB/c mouse allografted with mouse C26 cells at 10 mg/kg, iv after 3 hrs; format: ADME, organism-based, Neoplasm; set-up: dose 10 mg/kg, route intravenous; details: read-out: Drug uptake
PARAMETER MEASURED: concentration at 3 h (ng/g)
Report only the number, with the unit ng/g understood.

## Task Any idea what concentration at 3 h was measured for C=Cc1c(C)c2cc3nc(cc4[nH]c(cc5nc(cc1[nH]2)C(C)(O)/C5=C\C=N/OCC)c(C)c4CCC(=O)N(CC(=O)[O-])CC(=O)[O-])C(CCC(=O)N(CC(=O)[O-])CC(=O)[O-])=C3C.[Na+].[Na+].[Na+].[Na+] (stereo unspecified) ?
## Result 690

====

Please provide measured concentration at 1 h for the entries that follow.
test: Biodistribution in serum of BALB/c mouse allografted with mouse C26 cells at 10 mg/kg, iv after 1 hr; format: ADME, organism-based; design: dose 10 mg/kg, route intravenous; details: read-out: Drug uptake

## Task Any idea what concentration at 1 h was measured for C=Cc1c(C)c2cc3nc(cc4[nH]c(cc5nc(cc1[nH]2)C(C)(O)/C5=C\C=N/OCC)c(C)c4CCC(=O)N(CC(=O)[O-])CC(=O)[O-])C(CCC(=O)N(CC(=O)[O-])CC(=O)[O-])=C3C.[Na+].[Na+].[Na+].[Na+] (configuration not stated) ?
## Result 17200 ng/g

## Task Any idea what concentration at 1 h was measured for C=Cc1c(C)c2cc3nc(cc4[nH]c(cc5nc(cc1[nH]2)C(C)(O)/C5=C\C=N/OCC)c(C)c4CCC(=O)[O-])C(CCC(=O)[O-])=C3C.[Na+].[Na+] (configuration not stated) ?
## Result 24200 ng/g

====

assay: Biodistribution in serum of BALB/c mouse allografted with mouse C26 cells at 10 mg/kg, iv after 6 hrs; assay type: ADME, organism-based; set-up: dose 10 mg/kg, route intravenous; conditions: read-out: Drug uptake
PARAMETER MEASURED: concentration at 6 h (ng/g)
Report only the number, with the unit ng/g understood.

## Task Any idea what concentration at 6 h was measured for C=Cc1c(C)c2cc3nc(cc4[nH]c(cc5nc(cc1[nH]2)C(C)(O)/C5=C\C=N/OCC)c(C)c4CCC(=O)N(CC(=O)[O-])CC(=O)[O-])C(CCC(=O)N(CC(=O)[O-])CC(=O)[O-])=C3C.[Na+].[Na+].[Na+].[Na+] (stereo unspecified) ?
## Result 3400

====

assay: Biodistribution in serum of BALB/c mouse allografted with mouse C26 cells at 10 mg/kg, iv after 3 hrs; assay type: ADME, organism-based; design: dose 10 mg/kg, route intravenous; conditions: read-out: Drug uptake
PARAMETER MEASURED: concentration at 3 h (ng/g)
Report only the number, with the unit ng/g understood.

## Task Any idea what concentration at 3 h was measured for C=Cc1c(C)c2cc3nc(cc4[nH]c(cc5nc(cc1[nH]2)C(C)(O)/C5=C\C=N/OCC)c(C)c4CCC(=O)N(CC(=O)[O-])CC(=O)[O-])C(CCC(=O)N(CC(=O)[O-])CC(=O)[O-])=C3C.[Na+].[Na+].[Na+].[Na+] (configuration not stated) ?
## Result 8400

## Task Any idea what concentration at 3 h was measured for C=Cc1c(C)c2cc3nc(cc4[nH]c(cc5nc(cc1[nH]2)C(C)(O)/C5=C\C=N/OCC)c(C)c4CCC(=O)[O-])C(CCC(=O)[O-])=C3C.[Na+].[Na+] (configuration not stated) ?
## Result 5900
